# assay-system: T1, PUF4 RNA-binding domain (Saccharomyces cerevisiae, UniProt P25339 537-888)
# T1 sequence: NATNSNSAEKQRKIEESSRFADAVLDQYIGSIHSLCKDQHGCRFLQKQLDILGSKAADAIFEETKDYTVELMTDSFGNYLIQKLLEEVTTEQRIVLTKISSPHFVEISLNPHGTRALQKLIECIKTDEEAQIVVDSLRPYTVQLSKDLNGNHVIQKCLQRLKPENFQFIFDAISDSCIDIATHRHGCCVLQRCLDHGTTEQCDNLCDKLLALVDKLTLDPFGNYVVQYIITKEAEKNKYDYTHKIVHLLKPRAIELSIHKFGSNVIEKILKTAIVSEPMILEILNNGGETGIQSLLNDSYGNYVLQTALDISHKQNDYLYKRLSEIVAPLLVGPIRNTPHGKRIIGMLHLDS
# protocol-description: Mg; RNA-MaP; 20 mM Na-HEPES pH 7.4, 30 mM KOAc, 0.75 mM MgCl2, 0.1% Tween-20, 5% glycerol, 0.1 mg/mL BSA, 2 mM DTT; 25 C; 0.0125-409.6 nM protein
# condition-set: tags: N-His6-TEV cleaved; C-SNAP kept, Cy3B-labelled; label: tethered on chip by stalled RNA polymerase
Overview of reported pKd across a group of binders:
Expect pKd as a plain number equal to -log10 of the molar concentration.

INSERT INTO results (binder, numeric_readout) VALUES
  ('Ib_S2_P4E.1_K4.1_C4.1_H4.1_A4.1_[T5A]_F4.1_[A9T]_T4.1 (ssRNA) RNA: UUUGAUUAAUAUGAUAUCGUUCUUUCUUGUAAAUUUUUCUUUCUCGAUAUCAUAUUAAUCUUU', 7.96),
  ('Ic_S2_P4E.1_K4.1_C4.1_H4.1_A4.1_[A6T]_F4.1_[T8A]_[A9T]_T4.1 (ssRNA) RNA: UUUGAUUAAUAUGAUAUCGUUCUUUCUUGUAUUUAUUUCUUUCUCGAUAUCAUAUUAAUCUUU', 8.01),
  ('UCUCUUUGUCUUAUAAUCUCUU (ssRNA) [Ib_S1_P5E.1_K5.1_C5.1_H5.1_[A4C]_A5.1_F5.1_[T9A]_T5.1]', 6.99);

Entry Ie_S2_P3E.2_K3.1_C3.2_[+-2TCT]_H3.1_A3.1_F3.1_T3.2 (ssRNA) RNA: UUUGAUUAAUAUGAUAUCGUUCUUUCUCUCUUUGUAUAUAUAUUCUUUCUCGAUAUCAUAUUAAUCUUU : reported pKd = ?
8.99

Name the recorded pKd for UCUCUUUGUAUAAUUAUCUCUU (ssRNA) [Ia_S1_P5E.1_K5.1_C5.1_H5.1_A5.1_[T6A]_F5.1_T5.1] .
8.28

What value of measured pKd is listed for ACAAACUGUCUUACUAACAAAC (ssRNA) [Ib_S3_P5E.1_K5.1_C5.1_H5.1_[A4C]_A5.1_F5.1_[T8C]_T5.1] ?
5.99

I am curious: what pKd value has been reported for Id_ii_S2_P4E.2_K4.1_C4.2_[C-2A]_[T-1A]_H4.1_A4.1_F4.1_T4.2_[G10A]_[T11G] (ssRNA) RNA: UUUGAUUAAUAUGAUAUCGUUCUUUCUAAUGUAUAUUAAGUUCUUUCUCGAUAUCAUAUUAAUCUUU ?
8.05

Endpoint output: pKd of UCUCUUGUACACUAUAUUUCUCUU (ssRNA) [Id_ii_S1_P3E.4_K3.3_C3.2_[C-2G]_H3.3_A3.1_F3.1_T3.2_[A10T]] . Value?
9.05

Entry under review: UCUCUUAGUGUAUAUAAUUCUCUU (ssRNA) [Id_ii_S1_P3E.2_K3.1_C3.2_[C-2A]_[T-1G]_H3.1_A3.1_F3.1_T3.2_[T9A]_[A10T]] . Reported pKd?
8.00

Recorded pKd of ACAAACAGGUAUAUAUAUAACAAAC (ssRNA) [Id_i_S3_P3E.6_K3.2_C3.3_[T-3A]_[C-2G]_[T-1G]_H3.2_A3.1_F3.1_T3.2] , please.
6.25

Give its pKd value. Item: Ic_S2_P4E.1_K4.1_C4.1_H4.1_A4.1_[A6T]_[T7G]_F4.1_[T8C]_[A9C]_T4.1 (ssRNA) RNA: UUUGAUUAAUAUGAUAUCGUUCUUUCUUGUAUUGCCUUCUUUCUCGAUAUCAUAUUAAUCUUU
6.19

Given UCUCUUUGUAUUAUCUCUUAUCUCUU (ssRNA) [Ie_S1_P5E.1_K5.1_C5.1_H5.1_A5.1_[+7TCTC]_F5.1_T5.1] , state its recorded pKd.
7.65

Look up pKd for this binder: UCUCUUUGUAGUGUAUCUCUU (ssRNA) [Ic_S1_P4E.1_K4.1_C4.1_H4.1_A4.1_[T5G]_[A6T]_[T7G]_F4.1_T4.1]
7.28
